- Method: SAXS correlation length of the micelles
- Type: physicochemical
- Settings: 2% oil
Counter-ions that a name gives are not always drawn.
Property name: Correlation length peak [A] (A)
Numeric answer only, unit A assumed.

1. CC(=O)CCc1ccc(O)cc1 | 50
2. CCCCCC1(C)CCC(C)(C)C1=O (stereo not shown) | 55
3. CC(C)=CCC/C(C)=C/COC(=O)Cc1ccccc1 [Geranyl Phenyl Acetate] | 55

Look at this compound and give its reported Correlation length peak [A]. C=C(C)[C@H]1CC=C(C)CC1
57

For the compound shown here, CCO , give the reported Correlation length peak [A].
51

If you can, please state the reported Correlation length peak [A] value of CCOC(=O)CC(O)(CC(=O)OCC)C(=O)OCC [Triethyl Citrate] .
50

Requested read-out: Correlation length peak [A]. Entry: C=CC(C)(CCC=C(C)C)OC(=O)C(C)C (stereo not shown) [Linalyl Iso Butyrate]
56

Which Correlation length peak [A] reading was recorded for the compound OCC(O)CO ?
51

Returns the measured Correlation length peak [A] for the input compound. Input: CCCCCCCCCCCCCCCC
59

GET /values?readout=Correlation length peak [A]&item= COc1ccc(C=O)cc1
51

====

- Method: SAXS correlation length of the micelles
- Format: physicochemical
- Settings: 4% oil
Property name: Correlation length peak [A] (A)
Write the answer as a number in A, unit excluded.

1) CCCCCC1(C)CCC(C)(C)C1=O (stereo not shown) | 59

What value of measured Correlation length peak [A] is listed for C=CC(C)(CCC=C(C)C)OC(=O)C(C)C (stereo not shown) [Linalyl Iso Butyrate] ?
61

Using the record for OCC(O)CO , report its Correlation length peak [A].
51

====

- Method: Kinematic viscosity of surfactant base formulation with added agent (calibrated Cannon viscometers)
- Assay type: physicochemical
- Settings: kinematic viscosity at 40° C.; lowest over 2%, 4%, 6%, 8% agent in base formulation (24% sodium undecyl sulfate, 6% lauramidopropyl betaine, 1.6% perfume)
Quick list: Lowest viscosity achieved per entry.

// solved cases for Lowest viscosity achieved follow
1. CCC(=O)O[C@@H]1C[C@H]2CC[C@]1(C)C2(C)C (racemic) [Iso Bornyl Propionate] | 463 cSt
2. CCC(=O)OC1CC2CC1C1CC=CC21 (stereo not shown) | 404 cSt
3. CC(C)=CCC/C(C)=C/COC(=O)Cc1ccccc1 [Geranyl Phenyl Acetate] | 34 cSt

Next:
Lowest viscosity achieved for CCCCCCCCCCCCCCCC ?
18 cSt

====

- Method: SAXS correlation length of the micelles
- Format: physicochemical
- Settings: 4% oil; control 51 A
Structures can show the parent of a compound that is named as a salt.
Property name: Change in correlation length compared to control (%)
Your answer should be a plain number; it is taken to be in %.

Example cases with answers are listed next.
1. CCO [Ethanol] | −3.9
2. OCC(O)CO [Glycerin] | 0.0
3. C=C(C)[C@H]1CC=C(C)CC1 [Limonene] | 21.6
4. CCOC(=O)CC(O)(CC(=O)OCC)C(=O)OCC [Triethyl Citrate] | −3.9
5. CC(C)=CCC/C(C)=C/COC(=O)Cc1ccccc1 [Geranyl Phenyl Acetate] | 17.6

# context switch: different compound, same Change in correlation length compared to control
Entry COc1ccc(C=O)cc1 [Anisic aldehyde] : reported Change in correlation length compared to control = ?
0.0
